From: patent US20160297892A1

- measuredTarget: T1, Gla-domain deleted recombinant human Protein S (human, UniProt P07225 114-676)
- T1 construct: also called hPS-dGla; desGla human Protein S
- T1 sequence: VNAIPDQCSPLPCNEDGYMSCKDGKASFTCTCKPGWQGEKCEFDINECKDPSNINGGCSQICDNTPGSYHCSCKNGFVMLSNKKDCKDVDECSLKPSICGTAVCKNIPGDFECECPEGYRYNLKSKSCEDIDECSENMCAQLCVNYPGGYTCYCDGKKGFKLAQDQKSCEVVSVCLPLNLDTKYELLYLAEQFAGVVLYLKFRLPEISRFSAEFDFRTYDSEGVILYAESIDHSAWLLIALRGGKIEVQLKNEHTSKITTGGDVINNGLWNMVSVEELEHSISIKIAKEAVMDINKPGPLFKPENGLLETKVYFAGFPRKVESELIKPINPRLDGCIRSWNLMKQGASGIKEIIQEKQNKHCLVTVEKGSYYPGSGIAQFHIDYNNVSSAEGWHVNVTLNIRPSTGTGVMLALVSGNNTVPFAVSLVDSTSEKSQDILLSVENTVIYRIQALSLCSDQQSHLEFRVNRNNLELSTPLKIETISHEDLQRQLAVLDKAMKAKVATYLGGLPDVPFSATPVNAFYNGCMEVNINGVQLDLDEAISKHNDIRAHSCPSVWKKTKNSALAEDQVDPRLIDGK
- assayRemarks: ELISA, calcium-free TBS;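 note: binding of mouse antibodies detected by ELISA with an HRP-conjugated goat anti-mouse IgG secondary and TMB substrate development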

[
  {
    "binder": "M-hProtS-3F2A1 monoclonal antibody (antibody, V domains shown, Mouse IgG1, kappa) VH: EVQLQESGPSLVKPSQTLSLTCSVTGDSITSGYWNWIRKFPGNKLEYMGYISFSGSTYYNPSLKSRISITRDTSKNQYYLQLNSVTTEDTATYYCAREFAYWGQGTLVTVSA VL: DIVLTQSPATLSVTPGDSVSLSCRASQSISNNLHWYQQKSHESPRLLIKFVSQSISGIPSRFSGSGSGTDFTLSINSVETEDFGMYFCQQSNSWPWTFGGGTKLEIKR",
    "binding result": "binds"
  },
  {
    "binder": "M-hProtS-2F82A1 monoclonal antibody (antibody, V domains shown, Mouse IgG1, kappa; also called mAb 0017) VH: QVQLQQPGTELVRPGASVKLSCKASGYTFTSYWMNWVQQRPEQGLEWIGRIDPYDTETHYNQKFEDKAILTVDKSSSTAYMQLSSLTSEDSAVYYCARWAGSSYAMDYWGQGTSVTVSS VL: QIVLTQSPALMSASPGERVTMTCSASSSVSYMYWYQQKPRSSPKPWIYSTSNLASGVPARFSGSGSGTSYSLTISSMEAEDAATYYCQQWSSNPYTFGGGTKLEIKR",
    "binding result": "binds"
  },
  {
    "binder": "M-hProtS-2F4A1 monoclonal antibody (antibody, V domains shown, Mouse IgG1, kappa) VH: EVKLEESGGGLVQPGGSMKLSCAASGFTFSDAWMDWVRQSPEKGLEWVAEIRSKANNHATYYAESVKGRFTISRDDSKSGVYLQMNSLRPEDTGIYYCTLTTAFLFDYWGQGTTLTVSS VL: QIALTQSPAIMSASPGEKVTMTCSVSSSVSYMHWYQQKPGSSPRLWIYDTSNLVSGVPGRFSGSGSGTSYSLTLSSMEAEDAATYYCQQYSGYLYTFGGGTKLEIKR",
    "binding result": "binds"
  }
]
